The reported numbers originate from PubChem BioAssay AID588453.

- target: Thioredoxin reductase 1, cytoplasmic (Rattus norvegicus) (UniProt O89049)
- Sequence (O89049 whole entry, looked up): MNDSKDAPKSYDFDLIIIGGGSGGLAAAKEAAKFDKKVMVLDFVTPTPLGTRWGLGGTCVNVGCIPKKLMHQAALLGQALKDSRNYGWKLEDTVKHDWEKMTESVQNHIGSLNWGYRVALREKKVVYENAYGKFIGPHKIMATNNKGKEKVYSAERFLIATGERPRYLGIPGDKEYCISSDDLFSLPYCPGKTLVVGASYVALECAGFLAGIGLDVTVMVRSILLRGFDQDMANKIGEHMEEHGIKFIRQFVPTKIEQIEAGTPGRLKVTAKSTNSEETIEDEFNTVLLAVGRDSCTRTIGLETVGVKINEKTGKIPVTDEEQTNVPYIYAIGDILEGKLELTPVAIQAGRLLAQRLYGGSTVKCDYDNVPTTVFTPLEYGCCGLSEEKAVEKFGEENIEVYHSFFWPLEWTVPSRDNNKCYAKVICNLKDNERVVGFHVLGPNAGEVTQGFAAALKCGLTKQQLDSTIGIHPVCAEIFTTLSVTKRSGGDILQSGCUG
- assayText: qHTS Assay for Inhibitors of Mammalian Selenoprotein Thioredoxin Reductase 1 (TrxR1): qHTS; also: nearly all actives have a fitted effect of over 65% in size
- experimentalSetup: recombinant rTrxR1, NADPH fluorescence consumption, selenite substrate; series mostly up to 114 µM
Screen size: about 390,000 compounds; about 4,000 (1%) were called active. Inconclusive results (about 4%) are left out. Calls follow the shape of the dose curve; as a rule, active = well fitted inhibition curve with a large enough effect; inconclusive = small, poorly fitted or top-dose-only effect; inactive = no such curve, though single readings can be large or run the other way. The full list was thinned out, with actives kept by preference.
Classes used: class 1 (active), class 0 (inactive)

INSERT INTO assay_data (molecule, classlabel) VALUES
  ('CCOC(=O)c1scc(-c2ccc(C)cc2)c1S(=O)(=O)Nc1cc(C)ccc1C', 'class 0'),
  ('COCCNc1nnc(SCC(=O)NNC(=O)c2ccco2)s1', 'class 0'),
  ('CC(C)c1ccc(C2C(C(=O)c3ccco3)=C(O)C(=O)N2CC2CCCO2)cc1 (stereo not given)', 'class 0'),
  ('C=CCSc1nnc(N2C(=O)C(O)=C(C(=O)c3ccco3)C2c2ccc(F)cc2)s1 (stereo not given)', 'class 1'),
  ('O=[N+]([O-])c1cc(-c2nc(-c3ccccc3)no2)ccc1NCc1ccco1', 'class 0'),
  ('CCOC(=O)c1c(NC(=O)c2ccc(S(=O)(=O)N3CCCC(C)C3)cc2)sc2c1CCN(C(C)C)C2 (stereo not given)', 'class 0'),
  ('O=C(CSc1ccc(-c2cccs2)nn1)Nc1ccccc1F', 'class 0'),
  ('CSc1ccccc1NC(=O)CCS(=O)(=O)c1nc(-c2cccs2)cc(C(F)(F)F)n1', 'class 1'),
  ('O=C(NC1CC(=O)N(c2ccc(Cl)cc2)C1)C1CCCC1 (stereo not given)', 'class 0'),
  ('CC(Nc1ccc(-c2nc(-c3ccco3)no2)cc1[N+](=O)[O-])c1ccccc1 (stereo not given)', 'class 1');

====

- target: Thioredoxin reductase 1, cytoplasmic (Rattus norvegicus) (UniProt O89049)
- assayText: qHTS Assay for Inhibitors of Mammalian Selenoprotein Thioredoxin Reductase 1 (TrxR1): qHTS; also: nearly all actives have a fitted effect of over 65% in size
- experimentalSetup: recombinant rTrxR1, NADPH fluorescence consumption, selenite substrate; series mostly up to 114 µM
Among all 390,000 compounds or so, about 4,000 (1%) were called active. Another 4% or so got no clear call; they are omitted. Calls come from the whole dose curve; as a rule, active = well fitted inhibition curve with a large enough effect; inconclusive = small, poorly fitted or top-dose-only effect; inactive = no such curve, though single readings can be large or run the other way. Shown is part of a subset that was picked to be rich in actives.
Outcomes: TRUE (active), FALSE (inactive)

INSERT INTO measurements (compound, target, classlabel) VALUES
  ('COc1cc(-n2c(C)nc3cc(C(=O)NCc4ccco4)ccc32)cc(OC)c1OC', 'Thioredoxin reductase 1, cytoplasmic (Rattus norvegicus) (UniProt O89049)', 'FALSE'),
  ('O=C(CSc1nnc(-c2ccco2)n1CC1CCCO1)c1ccccc1 (stereo not drawn)', 'Thioredoxin reductase 1, cytoplasmic (Rattus norvegicus) (UniProt O89049)', 'TRUE'),
  ('Cc1nnc(SCC(=O)NNC(=O)c2ccc(Cl)cc2)n1CC1CCCO1 (stereo not drawn)', 'Thioredoxin reductase 1, cytoplasmic (Rattus norvegicus) (UniProt O89049)', 'FALSE'),
  ('COc1ccc(N=C2C=CC(=O)O2)cc1', 'Thioredoxin reductase 1, cytoplasmic (Rattus norvegicus) (UniProt O89049)', 'TRUE'),
  ('COCCNC(=O)Nc1ccc2nc(-c3ccco3)c(-c3ccco3)nc2c1', 'Thioredoxin reductase 1, cytoplasmic (Rattus norvegicus) (UniProt O89049)', 'TRUE'),
  ('CCn1c(C)c(C)c2cc(C(=O)NCCc3cc(OC)ccc3OC)ccc21', 'Thioredoxin reductase 1, cytoplasmic (Rattus norvegicus) (UniProt O89049)', 'FALSE'),
  ('C=CCNC(=O)c1ccc2nc(-c3ccco3)c(-c3ccco3)nc2c1', 'Thioredoxin reductase 1, cytoplasmic (Rattus norvegicus) (UniProt O89049)', 'TRUE'),
  ('COc1ccc(CN2CCNC(=O)C2CC(=O)N(C)Cc2ccccn2)cc1OC (stereo not drawn)', 'Thioredoxin reductase 1, cytoplasmic (Rattus norvegicus) (UniProt O89049)', 'FALSE'),
  ('COc1cc(Cl)c(C)cc1NC(=O)CCc1nc2cccnc2n1Cc1cccs1', 'Thioredoxin reductase 1, cytoplasmic (Rattus norvegicus) (UniProt O89049)', 'FALSE'),
  ('O=C(NCCC1=CCCCC1)c1ccc2c(c1)N(Cc1ccccc1F)C(=O)c1ccccc1S2(=O)=O', 'Thioredoxin reductase 1, cytoplasmic (Rattus norvegicus) (UniProt O89049)', 'FALSE'),
  ('COC1=CC(=O)OC(c2ccc(OC)cc2)C1 (stereo not drawn)', 'Thioredoxin reductase 1, cytoplasmic (Rattus norvegicus) (UniProt O89049)', 'FALSE'),
  ('CN(C)c1ccc(/C=C/c2c3ccccc3nc3ccccc23)cc1', 'Thioredoxin reductase 1, cytoplasmic (Rattus norvegicus) (UniProt O89049)', 'FALSE'),
  ('O=C(c1ccc(Oc2ccc(Cl)cc2)c([N+](=O)[O-])c1)N1CCCC1', 'Thioredoxin reductase 1, cytoplasmic (Rattus norvegicus) (UniProt O89049)', 'FALSE'),
  ('O=C(CC1N=C2c3ccccc3N=C(SCc3ccc(F)cc3)N2C1=O)NCc1cccs1 (stereo not drawn)', 'Thioredoxin reductase 1, cytoplasmic (Rattus norvegicus) (UniProt O89049)', 'FALSE'),
  ('COc1ccc(-c2onc(C)c2C)cc1S(=O)(=O)NCCc1ccccc1', 'Thioredoxin reductase 1, cytoplasmic (Rattus norvegicus) (UniProt O89049)', 'FALSE'),
  ('CNC(=O)NC(=O)CSc1nnc(-c2ccc(F)cc2)n1CC1CCCO1 (stereo not drawn)', 'Thioredoxin reductase 1, cytoplasmic (Rattus norvegicus) (UniProt O89049)', 'FALSE'),
  ('CCOc1ccc(NC(=O)c2ncoc2-c2ccco2)cc1', 'Thioredoxin reductase 1, cytoplasmic (Rattus norvegicus) (UniProt O89049)', 'FALSE'),
  ('Cc1cccc(N2CCN(C3=C(c4ccccc4)C(=O)c4ccccc43)CC2)c1C', 'Thioredoxin reductase 1, cytoplasmic (Rattus norvegicus) (UniProt O89049)', 'FALSE'),
  ('CC1CN(C(=O)N2CCC(C(=O)NCc3ccco3)CC2)c2cc(Cl)ccc2O1 (stereo not drawn)', 'Thioredoxin reductase 1, cytoplasmic (Rattus norvegicus) (UniProt O89049)', 'FALSE'),
  ('Oc1ccc(Cn2cc[nH]c2=S)cc1', 'Thioredoxin reductase 1, cytoplasmic (Rattus norvegicus) (UniProt O89049)', 'FALSE'),
  ('O=C(NCc1ccccc1Cl)C1=Cc2cc(Br)ccc2OC1', 'Thioredoxin reductase 1, cytoplasmic (Rattus norvegicus) (UniProt O89049)', 'FALSE'),
  ('COc1ccc(C2C(=O)N(C3CCCCCC3)CC(=O)N2CCc2ccc(Cl)cc2)cc1OC (stereo not drawn)', 'Thioredoxin reductase 1, cytoplasmic (Rattus norvegicus) (UniProt O89049)', 'FALSE'),
  ('COc1ccc(NC(=O)COCc2cc(-c3ccco3)on2)cc1', 'Thioredoxin reductase 1, cytoplasmic (Rattus norvegicus) (UniProt O89049)', 'FALSE');
